# Tested on: PLC-PRF-5
# test.description: Cytotoxicity against human PLC/PRF/5 cells assessed as growth inhibition after 24 hrs by MTT assay
# Format: functional, cell-based
# experimental.conditions: PLC-PRF-5, 24 h
readout.label: pIC50
Hey, just a heads up that pIC50 is the negative log base 10 of the concentration in molar.

# returns recorded pIC50 (system: PLC-PRF-5) for "COc1cc(NC(=O)c2ccc(C(F)(F)F)cc2)c2cc1Oc1ccc(cc1)C[C@H]1c3cc(c(OC)cc3CCN1C)Oc1c(OC)c(OC)cc3c1[C@H](C2)N(C)CC3"
5.02

// lookup pIC50 | system=PLC-PRF-5 | key= "COc1cc(NC(=O)CCBr)c2cc1Oc1ccc(cc1)C[C@H]1c3cc(c(OC)cc3CCN1C)Oc1c(OC)c(OC)cc3c1[C@H](C2)N(C)CC3"
5.20

GET /values?readout=pIC50&system=PLC-PRF-5&item= "COc1cc(NC(=O)c2ccoc2)c2cc1Oc1ccc(cc1)C[C@H]1c3cc(c(OC)cc3CCN1C)Oc1c(OC)c(OC)cc3c1[C@H](C2)N(C)CC3"
5.72

Give the reported pIC50 for "COc1cc(NC(=O)C(F)(F)F)c2cc1Oc1ccc(cc1)C[C@H]1c3cc(c(OC)cc3CCN1C)Oc1c(OC)c(OC)cc3c1[C@H](C2)N(C)CC3" (system: PLC-PRF-5).
5.65

Form: Entry = "COC(=O)C(=O)Nc1cc(OC)c2cc1C[C@H]1c3c(cc(OC)c(OC)c3Oc3cc4c(cc3OC)CCN(C)[C@H]4Cc3ccc(cc3)O2)CCN1C" | System = PLC-PRF-5 | pIC50 = ____
5.43

Enter reported pIC50 observed with PLC-PRF-5 for "COc1cc(NC(=O)COC(C)=O)c2cc1Oc1ccc(cc1)C[C@H]1c3cc(c(OC)cc3CCN1C)Oc1c(OC)c(OC)cc3c1[C@H](C2)N(C)CC3"
4.99

* * *

# Tested on: PLC-PRF-5
# test.description: Cytotoxicity against human PLC/PRF/5 cells assessed as growth inhibition after 24 hrs by MTT assay
# Format: functional, cell-based
# experimental.conditions: PLC-PRF-5, 24 h
Recorded IC50, one value per entry.
Number first, unit second: that is the form wanted.

Please review the following examples before continuing.
COc1cc(NC(=O)CO)c2cc1Oc1ccc(cc1)C[C@H]1c3cc(c(OC)cc3CCN1C)Oc1c(OC)c(OC)cc3c1[C@H](C2)N(C)CC3 :: 10.2 µM
COc1cc(NC(=O)c2cc[nH]n2)c2cc1Oc1ccc(cc1)C[C@H]1c3cc(c(OC)cc3CCN1C)Oc1c(OC)c(OC)cc3c1[C@H](C2)N(C)CC3 :: 2.24 µM
C=CCCCCCCCCC(=O)Nc1cc(OC)c2cc1C[C@H]1c3c(cc(OC)c(OC)c3Oc3cc4c(cc3OC)CCN(C)[C@H]4Cc3ccc(cc3)O2)CCN1C :: 11.3 µM
COc1cc(NC(=O)c2cccc3ccccc23)c2cc1Oc1ccc(cc1)C[C@H]1c3cc(c(OC)cc3CCN1C)Oc1c(OC)c(OC)cc3c1[C@H](C2)N(C)CC3 :: 5.56 µM
COc1cc(NC(=O)C2CC2)c2cc1Oc1ccc(cc1)C[C@H]1c3cc(c(OC)cc3CCN1C)Oc1c(OC)c(OC)cc3c1[C@H](C2)N(C)CC3 :: 6.45 µM

With those in mind, consider the next molecule.
Returns the measured IC50 for the input molecule. Input: "COc1cc(NC(=O)c2c(Cl)cc(Cl)cc2Cl)c2cc1Oc1ccc(cc1)C[C@H]1c3cc(c(OC)cc3CCN1C)Oc1c(OC)c(OC)cc3c1[C@H](C2)N(C)CC3"
6.54 µM
